Each recorded value in this set is attributed to paper PMC12920294.

Entries annotated with measured tissue uptake at 4 h
# Test: in vivo
# Condition notes: CD1 nude, mouse, 0.5 nmol/mouse, total radioactivity, Kidneys uptake
Supply the numeric figure in %ID/g, leaving out any unit text.

{"Compound": "Cc1ccc(CCCC(=O)NCCOCCOCCOCCC(=O)NCCCC[C@H](NC(=O)CN2CCN(CC(=O)O)CCN(CC(=O)O)CCN(CC(=O)O)CC2)C(=O)N[C@@H](CC(=O)O)C(=O)N[C@@H](CC2CCCCC2)C(=O)N[C@@H](Cc2ccccc2)C(=O)N[C@H](CO)C(=O)N[C@H](CCCNC(=N)N)C(=O)N[C@@H](Cc2ccc(O)cc2)C(=O)N[C@@H](CC(C)C)C(=O)N[C@@H](Cc2c[nH]c3ccccc23)C(=O)N[C@@H](CO)C(N)=O)cc1 [[^177Lu]Lu-uPAR-15, metal not drawn]", "Measured result": 3.9}

Entry under review: Cc1ccc(CCCC(=O)NCCOCCOCCOCCOCCC(=O)NCCCC[C@H](NC(=O)CC[C@H](C(=O)O)N2CCN(CC(=O)O)CCN(CC(=O)O)CCN(CC(=O)O)CC2)C(=O)N[C@@H](CC(=O)O)C(=O)N[C@@H](CC2CCCCC2)C(=O)N[C@@H](Cc2ccccc2)C(=O)N[C@H](CO)C(=O)N[C@H](CCCNC(=N)N)C(=O)N[C@@H](Cc2ccc(O)cc2)C(=O)N[C@@H](CC(C)C)C(=O)N[C@@H](Cc2c[nH]c3ccccc23)C(=O)N[C@@H](CO)C(N)=O)cc1 [[^177Lu]Lu-uPAR-17, metal not drawn] . Reported tissue uptake at 4 h?
4.6

Entry Cc1ccc(CCCC(=O)NCCOCCOCCOCCOCCOCCC(=O)NCCCC[C@H](NC(=O)CN2CCN(CC(=O)O)CCN(CC(=O)O)CCN(CC(=O)O)CC2)C(=O)N[C@@H](CC(=O)O)C(=O)N[C@@H](CC2CCCCC2)C(=O)N[C@@H](Cc2ccccc2)C(=O)N[C@H](CO)C(=O)N[C@H](CCCNC(=N)N)C(=O)N[C@@H](Cc2ccc(O)cc2)C(=O)N[C@@H](CC(C)C)C(=O)N[C@@H](Cc2c[nH]c3ccccc23)C(=O)N[C@@H](CO)C(N)=O)cc1 [[^177Lu]Lu-uPAR-18, metal not drawn] has what tissue uptake at 4 h?
3.7

For the compound shown here, Cc1ccc(CCCC(=O)NCCOCCOCCOCCOCCC(=O)NCCCC[C@H](NC(=O)CN2CCN(CC(=O)O)CCN(CC(=O)O)CCN(CC(=O)O)CC2)C(=O)N[C@@H](CC(=O)O)C(=O)N[C@@H](CC2CCCCC2)C(=O)N[C@@H](Cc2ccccc2)C(=O)N[C@H](CO)C(=O)N[C@H](CCCNC(=N)N)C(=O)N[C@@H](Cc2ccc(O)cc2)C(=O)N[C@@H](CC(C)C)C(=O)N[C@@H](Cc2c[nH]c3ccccc23)C(=O)N[C@@H](CO)C(N)=O)cc1 [[^177Lu]Lu-uPAR-11, metal not drawn] , give the reported tissue uptake at 4 h.
4

Look up tissue uptake at 4 h for this compound: Cc1ccc(CCCC(=O)NCCCCCCCC(=O)NCCCC[C@H](NC(=O)CN2CCN(CC(=O)O)CCN(CC(=O)O)CCN(CC(=O)O)CC2)C(=O)N[C@@H](CC(=O)O)C(=O)N[C@@H](CC2CCCCC2)C(=O)N[C@@H](Cc2ccccc2)C(=O)N[C@H](CO)C(=O)N[C@H](CCCNC(=N)N)C(=O)N[C@@H](Cc2ccc(O)cc2)C(=O)N[C@@H](CC(C)C)C(=O)N[C@@H](Cc2c[nH]c3ccccc23)C(=O)N[C@@H](CO)C(N)=O)cc1 [[^177Lu]Lu-uPAR-12, metal not drawn]
3.9
